molecular target: Cellular tumor antigen p53 (Homo sapiens); assay: TOX21_p53_BLA_p3_ratio: Tox21 HCT-116 p53 Agonism Beta-lactamase Assay, Ratio, Phase 3 (AID 2283596)
Inconclusive results are not listed. Active and inactive are the calls of the source. Rule for the calls: active = hit-call score of the fitted dose curve at least 0.9, where 1 is the maximum; inconclusive = response in the unintended direction; inactive = score below 0.9.
Lab note: assign the record to one of t (active), f (inactive)

Recorded results for 4 compounds are shown here.
* CNCCC(Oc1ccc(C(F)(F)F)cc1)c1ccccc1 (stereo not given) | f
* CC(=O)Oc1ccc(C2(c3ccc(OC(C)=O)cc3)Oc3ccccc3NC2=O)cc1 | f
* CC(C)N=C(N)/N=C(\N)Nc1ccc(Cl)cc1 | f
* CCC(C)C1N=C(C)C(C)S1 (stereo not given) | f

What did the test return for CCCCCCCCCCCCCCCC(=O)NCCO ?
f

What did the test return for O=C(Cc1cccs1)N[C@@H]1C(=O)N2C(C(=O)[O-])=C(C[n+]3ccccc3)CS[C@H]12 ?
f

What did the test return for CC(=O)N[C@H]1[C@H]([C@H](O)[C@H](O)CO)OC(C(=O)O)=C[C@@H]1N=C(N)N ?
f

What did the test return for COC(=O)[C@@H](N)CS ?
f

What did the test return for Cc1nc(C)c(C)nc1C ?
f

What did the test return for Oc1ccc(O)c2c(O)cccc12 ?
f

What did the test return for CCC(C)Nc1ccc(NC(C)CC)cc1 (stereo not given) ?
t

What did the test return for CCCC/C=C/CCCCO ?
f

---

Molecular target: Cellular tumor antigen p53 (Homo sapiens)
Test: TOX21_p53_BLA_p5_ratio: Tox21 HCT-116 p53 Agonism Beta-lactamase Assay, Ratio, Phase 5 (AID 2283599)
Experimental: TOX21_p53_BLA_p5 is a cell-based, single-readout assay that uses HCT116, a human intestinal cell line, […] in a 1536-well plate.TOX21_p53_BLA_p5_ratio is an assay readout measuring reporter gene via receptor activity and designed using inducible reporter (beta lactamase induction) detected with GAL4 b-lactamase reporter gene. […] This assay endpoint, TOX21_p53_BLA_p5_ratio, was analyzed in the positive analysis fitting direction relative to DMSO as the negative control and baseline of activity. […]
Records with an inconclusive call do not appear. Active and inactive are the calls of the source. Rule for the calls: active = hit-call score of the fitted dose curve at least 0.9, where 1 is the maximum; inconclusive = response in the unintended direction; inactive = score below 0.9.
Lab note: assign the record to one of active, inactive

What did the test return for CN(C)CCN(Cc1cccs1)c1ccccn1 ?
inactive

What did the test return for Cc1c(C)c2c(c(C)c1OC(=O)CCC(=O)OCCO)CCC(C)(CCCC(C)CCCC(C)CCCC(C)C)O2 (stereo not given) ?
active

What did the test return for NS(=O)(=O)c1cc(Cl)c(Cl)c(S(N)(=O)=O)c1 ?
inactive

What did the test return for OCC1CC2CC1C1CCC(CO)C21 (stereo not given) ?
inactive

What did the test return for NCC(=O)O ?
inactive

What did the test return for CC(C)C[C@H](NC(=O)CNC(=O)[C@H](Cc1ccc(O)cc1)NC(=O)[C@H](CO)NC(=O)[C@H](Cc1c[nH]c2ccccc12)NC(=O)[C@H](Cc1cnc[nH]1)NC(=O)[C@@H]1CCC(=O)N1)C(=O)N[C@@H](CCCN=C(N)N)C(=O)N1CCC[C@H]1C(=O)NCC(N)=O (stereo in doubt) ?
inactive

---

Biological target: Cellular tumor antigen p53 (Homo sapiens) (UniProt P04637)
Sequence (P04637 whole entry, looked up): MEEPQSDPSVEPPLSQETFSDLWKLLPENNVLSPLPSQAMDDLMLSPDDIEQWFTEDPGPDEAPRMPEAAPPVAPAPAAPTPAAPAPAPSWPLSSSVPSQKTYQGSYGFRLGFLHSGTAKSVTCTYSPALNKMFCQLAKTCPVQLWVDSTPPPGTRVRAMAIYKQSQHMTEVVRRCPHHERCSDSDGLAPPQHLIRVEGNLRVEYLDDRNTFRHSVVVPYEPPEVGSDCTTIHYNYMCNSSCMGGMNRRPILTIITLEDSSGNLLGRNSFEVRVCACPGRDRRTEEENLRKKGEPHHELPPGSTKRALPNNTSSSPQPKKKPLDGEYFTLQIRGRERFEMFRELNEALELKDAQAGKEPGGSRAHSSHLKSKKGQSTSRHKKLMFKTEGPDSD
Experiment: TOX21_p53_BLA_p2_ratio: Tox21 HCT-116 p53 Agonism Beta-lactamase Assay, Ratio, Phase 2 (AID 2283592)
Method: TOX21_p53_BLA_p2 is a cell-based, single-readout assay that uses HCT116, a human intestinal cell line, […] in a 1536-well plate.TOX21_p53_BLA_p2_ratio is an assay readout measuring reporter gene via receptor activity and designed using inducible reporter (beta lactamase induction) detected with GAL4 b-lactamase reporter gene. […] This assay endpoint, TOX21_p53_BLA_p2_ratio, was analyzed in the positive analysis fitting direction relative to DMSO as the negative control and baseline of activity. […]
Inconclusive results are not listed. Active and inactive are the calls of the source. Rule for the calls: active = hit-call score of the fitted dose curve at least 0.9, where 1 is the maximum; inconclusive = response in the unintended direction; inactive = score below 0.9.
MEASURED QUANTITY: outcome

• C/C=C/c1ccc(OCC)c(O)c1 = inactive
• CCO[Si](CCCN)(OCC)OCC = inactive
• C[C@@H](O)[C@H]1C(=O)N2C(C(=O)O)=C(S[C@@H]3CN[C@H](C(=O)N(C)C)C3)[C@H](C)[C@H]12 = inactive

---

target: Myc proto-oncogene protein (Homo sapiens); test: ATG_Myc_CIS: Attagene CIS-FACTORIAL HepG2 Assay for human Myelocytomatosis (Myc) Proto-Oncogene Transcription Factor (AID 2282990); details: HepG2, Attagene cis-reporter transcription factor activity; actives raise or lower the signal
The source made the active and inactive calls. Rule for the calls: active = hit-call score of the fitted dose curve at least 0.9, where 1 is the maximum; inactive = score below 0.9.
Lab note: assign the record to one of t (active), f (inactive)

* CCO[Si](CCCN)(OCC)OCC | f

What did the test return for CC(C)(Oc1ccc(Cl)cc1)C(=O)O ?
f

What did the test return for CN(C)c1ccc(C(c2ccccc2)c2ccc(N(C)C)cc2)cc1 ?
f

What did the test return for O=C(OCc1ccccc1)c1ccccc1 ?
f

What did the test return for CC(C)CC(=O)O ?
f

What did the test return for CC1(C)S[C@@H]2[C@H](NC(=O)[C@H](N)c3ccccc3)C(=O)N2[C@H]1C(=O)O ?
f

What did the test return for [O-][n+]1ccc(Cl)cc1 ?
f

What did the test return for COc1ccc2ccccc2c1 ?
f

---

target: Cellular tumor antigen p53 (Homo sapiens); assay: TOX21_p53_BLA_p3_ratio: Tox21 HCT-116 p53 Agonism Beta-lactamase Assay, Ratio, Phase 3 (AID 2283596)
Inconclusive results are not listed. Activity calls are given as the source filed them. The calls were made as follows: active = hit-call score of the fitted dose curve at least 0.9, where 1 is the maximum; inconclusive = response in the unintended direction; inactive = score below 0.9. Where a SMILES comes first, the peptide text is derived from it. Bridges are numbered along the chain shown (N, C = ends). [ ]: non-standard residue; d: D form. The star is where a group is joined. Ileψ(thiazoline)Cys = CC[C@H](C)[C@H](N)C1=N[C@H](C(=O)*)CS1; dOrn = NCCC[C@@H](N)C(=O)O
Lab note: assign the record to one of active, inactive

Recorded results for 5 molecules are shown here.
• CN(C)CC/C=C1/c2ccccc2COc2ccc(CC(=O)O)cc21 = inactive
• C=C1[C@@H]2CC[C@@H](C2)C1(C)C = inactive
• C=CC[N+]1([C@H]2C[C@H]3[C@@H]4CC[C@H]5C[C@H](OC(C)=O)[C@@H](N6CCCCC6)C[C@]5(C)[C@H]4CC[C@]3(C)[C@H]2OC(=O)CC)CCCCC1 = inactive
• OCc1ccccc1O = inactive
• CC(=O)OCC(=O)[C@@]1(O)CCC2C3CCC4=CC(=O)CC[C@]4(C)C3C(O)C[C@@]21C (stereo not given in full) = inactive

What did the test return for CC(C)c1ccc2oc3nc(N)c(C(=O)O)cc3c(=O)c2c1 ?
inactive

What did the test return for CC(C)(C)CC(C)(C)c1cc(Cc2cc(C(C)(C)CC(C)(C)C)cc(-n3nc4ccccc4n3)c2O)c(O)c(-n2nc3ccccc3n2)c1 ?
inactive

What did the test return for COc1ccc(OC)c(NC(=O)CC(C)=O)c1 ?
inactive

What did the test return for Cc1cc(Nc2ccccc2C(=O)O)ccc1Cl ?
inactive

What did the test return for CC(C)(C)CC(C)(C)c1ccccc1O ?
active

What did the test return for CC1CC(OC(=O)C(O)c2ccccc2)CC(C)(C)C1 (stereo not given) ?
inactive

What did the test return for CCC(=O)OCC(=O)[C@@]1(OC(=O)CC)[C@H](C)C[C@H]2[C@@H]3CCC4=CC(=O)C=C[C@]4(C)[C@@]3(F)[C@@H](O)C[C@@]21C ?
inactive

What did the test return for CCCCCCCCS ?
inactive

What did the test return for CC[C@H](C)[C@H](N)C1=N[C@H](C(=O)N[C@@H](CC(C)C)C(=O)N[C@H](CCC(=O)O)C(=O)N[C@H](C(=O)N[C@H]2CCCCNC(=O)[C@H](CC(N)=O)NC(=O)[C@@H](CC(=O)O)NC(=O)[C@H](Cc3cnc[nH]3)NC(=O)[C@@H](Cc3ccccc3)NC(=O)[C@H]([C@@H](C)CC)NC(=O)[C@@H](CCCN)NC2=O)[C@@H](C)CC)CS1 ({Ileψ(thiazoline)Cys}-L[dE]IK[dOrn]I[dF]H[dD]N; lactam 4-C) ?
inactive

What did the test return for Nc1ccc(C(=O)Oc2ccccc2)c(O)c1 ?
inactive

What did the test return for CCOC(=O)CS ?
inactive

What did the test return for O=C(NCC(O)CO)c1c(I)c(C(=O)NCC(O)CO)c(I)c(N(CCO)C(=O)CO)c1I (stereo not given) ?
inactive

---

molecular target: Cellular tumor antigen p53 (Homo sapiens); test: TOX21_p53_BLA_p2_ratio: Tox21 HCT-116 p53 Agonism Beta-lactamase Assay, Ratio, Phase 2 (AID 2283592)
Records with an inconclusive call do not appear. The source made the active and inactive calls. How the source made its calls: active means hit-call score of the fitted dose curve at least 0.9, where 1 is the maximum; inconclusive means response in the unintended direction; inactive means score below 0.9.
Lab note: assign the record to one of 1 (yes) for active, 0 (no) for inactive

Recorded results for 10 molecules are shown here.
* CN[C@H]1CC[C@@H](c2ccc(Cl)c(Cl)c2)c2ccccc21 | 0 (no)
* c1cc(N(CC2CO2)CC2CO2)ccc1Cc1ccc(N(CC2CO2)CC2CO2)cc1 (stereo unspecified) | 1 (yes)
* CCCCCCCCCCCCCCCCCCNC(=O)OC1CCN(C(=O)OC[C@H](COC(=O)N(Cc2cccc[n+]2CC)C(=O)c2ccccc2OC)OC)CC1 | 0 (no)
* O=C(NCCNCC(O)COc1ccc(O)cc1)N1CCOCC1 (stereo unspecified) | 0 (no)
* CC(=C(CCO)SSC(CCO)=C(C)N(C=O)Cc1cnc(C)nc1N)N(C=O)Cc1cnc(C)nc1N | 0 (no)
* CC(=O)O[C@H]1C[C@@]2(C)[C@@H](C[C@@H](O)[C@H]3[C@@]4(C)CC[C@@H](O)[C@@H](C)[C@@H]4CC[C@@]32C)/C1=C(\CCC=C(C)C)C(=O)O | 0 (no)
* OCCCNc1ccccc1 | 0 (no)
* CC(=O)c1cc(C)oc1C | 0 (no)
* C=CC(=O)OCCOc1ccccc1 | 0 (no)
* O=C(O)Cc1ccc(CCNS(=O)(=O)c2ccc(Cl)cc2)cc1 | 0 (no)

What did the test return for O=CC=C(c1ccccc1)c1ccccc1 ?
1 (yes)
